- tested_on: Lysine-specific demethylase 4A (Homo sapiens)
- protocol_description: qHTS Assay for Inhibitors of JMJD2A-Tudor Domain; further: nearly all actives have a fitted effect of over 50% in size
- condition_context: AlphaScreen JMJD2A-Tudor / H3K4me3 peptide binding; series mostly up to 114 µM
About 17,000 (4.4%) of roughly 390,000 compounds were called active. Inconclusive results (about 8%) are left out. The call rests on the fitted dose curve; in most records, active means well fitted inhibition curve with a large enough effect; inconclusive means small, poorly fitted or top-dose-only effect; inactive means no such curve, though single readings can be large or run the other way. Only a selection was taken, and actives are over-represented in it overall.
Field 'call' accepts active, inactive

Hi, sorry to bother you, what did the test record for Cc1ccc(-c2nnc(Nc3cccc(Br)c3)c3ccccc23)cc1S(=O)(=O)NCC1CCCO1 (stereo not given) ?
inactive

Hi, sorry to bother you, what did the test record for Cc1ccc(C2C=C(c3ccc(Cl)cc3)Nc3nc(NC(=O)CCC(=O)O)nn32)cc1 (stereo not given) ?
active

Hi, sorry to bother you, what did the test record for O=C(NCc1ccc2c(c1)CCN2C(=O)c1ccccc1)Nc1cc(F)ccc1F ?
inactive

Hi, sorry to bother you, what did the test record for COc1ccccc1-c1nnc(-c2ccc(F)cc2)o1 ?
inactive

Hi, sorry to bother you, what did the test record for COc1ccc(CC(=O)Nc2nc3n(n2)C(c2ccccc2)CC(=O)N3)cc1OC (stereo not given) ?
inactive

Hi, sorry to bother you, what did the test record for CCCNC(=O)c1ccc2c(c1)ncn2-c1ccc(C)cc1C ?
inactive

Hi, sorry to bother you, what did the test record for Cc1cc(C)cc(NC(=O)CSc2nc3nccnc3c(=O)n2CCc2c[nH]c3ccccc23)c1 ?
inactive

Hi, sorry to bother you, what did the test record for COc1ccccc1-c1nc(C(F)(F)F)c(OC)o1 ?
inactive

Hi, sorry to bother you, what did the test record for CC(=O)c1c(C)n(S(=O)(=O)c2ccc(Cl)cc2)c2ccc(NS(=O)(=O)c3ccc(Cl)cc3)cc12 ?
inactive

Hi, sorry to bother you, what did the test record for CCC(=C/c1sc2ccc3ccccc3c2[n+]1C)/C=C1\Sc2ccc3ccccc3c2N1C ?
active

* * *

- tested_on: Lysine-specific demethylase 4A (Homo sapiens)
- protocol_description: qHTS Assay for Inhibitors of JMJD2A-Tudor Domain; further: nearly all actives have a fitted effect of over 50% in size
- condition_context: AlphaScreen JMJD2A-Tudor / H3K4me3 peptide binding; series mostly up to 114 µM
The whole screen tested about 390,000 compounds, of which about 17,000 (4.4%) were called active. Roughly 8% stayed inconclusive and do not appear here. Calls follow the shape of the dose curve; as a rule, active = well fitted inhibition curve with a large enough effect; inconclusive = small, poorly fitted or top-dose-only effect; inactive = no such curve, though single readings can be large or run the other way. This is one part of a sample in which actives are shown more often than they occur.
Field 'call' accepts active, inactive

Hi, sorry to bother you, what did the test record for COc1ccccc1CNc1nc2ccc(Cl)cc2n2cnnc12 ?
inactive

Hi, sorry to bother you, what did the test record for COc1ccc(C2=Nn3c(nnc3-c3ccccc3O)SC2)cc1 ?
inactive

Hi, sorry to bother you, what did the test record for CCN1CCN(C(c2ccc(C)cc2)c2c(O)cc(C)n(Cc3ccco3)c2=O)CC1 (stereo not given) ?
inactive

Hi, sorry to bother you, what did the test record for COc1ccc(CN2CCN(Cc3cn(C)nc3-c3ccccc3)CC2CCO)c(C)c1C (stereo not given) ?
inactive

Hi, sorry to bother you, what did the test record for Cc1ccccc1CN1C[C@@H]2C[C@@H](c3cn(C)nc3-c3ccccc3)N3CCC[C@@]23C1=O ?
active

Hi, sorry to bother you, what did the test record for COc1ccc(/C(C)=N/NC(=O)c2ccc3nc[nH]c3c2)cc1 ?
inactive

Hi, sorry to bother you, what did the test record for Cc1ccc2c(=O)c(C(=O)c3cccc(Cl)c3)cn(CC(=O)NCc3ccccc3)c2n1 ?
inactive

Hi, sorry to bother you, what did the test record for CC(C)CCN(C(=O)Nc1ccc(Cl)c(Cl)c1)C(C)c1cccs1 (stereo not given) ?
inactive

Hi, sorry to bother you, what did the test record for COc1ccc(CC(=O)N/N=C(\C)c2ccccn2)cc1 ?
active

Hi, sorry to bother you, what did the test record for CCOC(=O)c1[nH]c(C)c(CCC(=O)NCc2ccccc2C)c1C ?
inactive
